- ASSAY SYSTEM: PDE4B2 (Homo sapiens, UniProt Q07343)
- Construct: purchased BPS bioscience 60042
- Sequence (Q07343 1-564 isoform Q07343-2): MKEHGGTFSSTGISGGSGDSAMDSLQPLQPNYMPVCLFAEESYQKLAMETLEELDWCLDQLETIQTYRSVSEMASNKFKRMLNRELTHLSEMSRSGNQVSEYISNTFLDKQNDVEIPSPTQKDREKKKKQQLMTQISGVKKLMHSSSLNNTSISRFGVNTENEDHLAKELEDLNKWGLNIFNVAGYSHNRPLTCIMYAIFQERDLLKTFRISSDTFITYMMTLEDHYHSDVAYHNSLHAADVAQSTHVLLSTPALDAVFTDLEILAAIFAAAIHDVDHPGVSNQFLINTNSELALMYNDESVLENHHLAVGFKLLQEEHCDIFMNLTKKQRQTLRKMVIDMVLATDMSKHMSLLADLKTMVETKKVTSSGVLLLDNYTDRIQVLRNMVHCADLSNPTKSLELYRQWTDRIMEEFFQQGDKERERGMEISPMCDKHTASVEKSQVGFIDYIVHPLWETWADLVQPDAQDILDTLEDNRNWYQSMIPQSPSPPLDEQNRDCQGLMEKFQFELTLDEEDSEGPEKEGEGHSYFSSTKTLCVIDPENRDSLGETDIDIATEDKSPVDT
- TEST SUMMARY: Inhibitory effect on PDE4 enzyme (AMP-Glo Assay kit), PDE4B2
- Type: biochemical
- TEST SETTINGS: cAMP substrate, 60 minutes at room temperature, AMP-Glo detection
- Experimental: PDE4 enzyme can hydrolyze cAMP to produce AMP. The synthetic PDE4 enzyme inhibitor act together with PDE4 enzyme and the substrate cAMP for a certain period of time, and then the AMP-Glo™ Assay kit was used for detection. […] ATP binds to the reagent and emits […]. The fluorescence value is detected using an […]. IC50 value of the PDE4 enzyme inhibitor was calculated by plotting a graph with the fluorescence values. […]
READOUT: IC50 (nM)

| MOLECULE | COMPARISON OPERATOR | ASSAY VALUE |
| --- | --- | --- |
| COc1nc(C)cc(C)c1CNc1nc(N2CCc3oc(-c4ccc(F)cc4)nc3C2)nc2c1[S@+]([O-])CC2 [Example 18] | = | 0.5 |
| [O-][S@+]1CCc2nc(N3CCc4oc(C5CCCCC5)nc4C3)nc(NC3(CO)CCC3)c21 [Example 5] | = | 0.93 |
| [O-][S@+]1CCc2nc(N3CCc4c(cnn4-c4ccccc4)C3)nc(NC3(CO)CCC3)c21 [Example 12] | = | 0.63 |
| [O-][S@+]1CCc2nc(N3CCc4cc(-c5ncccn5)ccc4C3)nc(NC34CC(CO)(C3)C4)c21 [Example 24] | < | 0.1 |
| Cc1cc(C(F)(F)F)c(CNc2nc(N3CCc4oc(-c5ccc(F)cc5)nc4C3)nc3c2[S@+]([O-])CC3)c(=O)[nH]1 [Example 17] | = | 8.9 |
